Test: Cytotoxicity against human NCI-H460/MX20 cells after 72 hrs by MTT assay
Assay type: cell-based
Conditions: NCI-H460/MX20, 72 h
Measured Attribute: IC50

// "CCCc1ccc(NC(=O)c2ccccc2NC(=O)c2ccc(OC)cc2)cc1" : IC50 value = > 100 µM

// "COc1ccc(-n2nnc(-c3ccccc3NC(=O)c3ccc([N+](=O)[O-])cc3)n2)cc1" : IC50 value = 27.4 µM

// "CCCc1ccc(NC(=O)c2ccccc2NC(=O)Nc2ccccc2[N+](=O)[O-])cc1" : IC50 value = > 100 µM

* * *

Molecular target: ABCG2 (BCRP) (Homo sapiens, UniProt Q9UNQ0)
Sequence (Q9UNQ0 whole entry): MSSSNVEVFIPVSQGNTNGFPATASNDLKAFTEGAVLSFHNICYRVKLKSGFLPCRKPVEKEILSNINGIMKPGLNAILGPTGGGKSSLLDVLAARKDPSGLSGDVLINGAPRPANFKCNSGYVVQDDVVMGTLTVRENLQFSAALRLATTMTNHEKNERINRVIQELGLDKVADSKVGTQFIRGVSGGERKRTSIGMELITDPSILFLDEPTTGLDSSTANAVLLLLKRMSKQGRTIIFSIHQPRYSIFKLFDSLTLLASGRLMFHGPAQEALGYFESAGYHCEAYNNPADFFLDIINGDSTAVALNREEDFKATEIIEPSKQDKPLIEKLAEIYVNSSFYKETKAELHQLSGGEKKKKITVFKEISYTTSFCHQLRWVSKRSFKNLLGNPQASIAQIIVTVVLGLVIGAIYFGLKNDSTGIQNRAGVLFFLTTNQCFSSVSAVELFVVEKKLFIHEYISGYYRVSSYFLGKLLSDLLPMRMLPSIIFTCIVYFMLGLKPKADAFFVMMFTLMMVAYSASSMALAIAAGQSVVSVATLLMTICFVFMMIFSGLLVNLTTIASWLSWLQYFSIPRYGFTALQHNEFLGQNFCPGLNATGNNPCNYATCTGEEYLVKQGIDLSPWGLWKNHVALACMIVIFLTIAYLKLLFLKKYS
Test: Activation of ABCG2 (unknown origin) expressed in high five insect cell membrane vesicles assessed as induction of basal BCRP ATPase activity at 10 uM preincubated for 3 mins followed by ATP addition measured for 20 mins relative to control
Settings: High Five insect cell membrane vesicles expressing ABCG2, read-out: FC
Measured Attribute: fold induction at 20 min, 10 µM

// "CCCc1ccc(NC(=O)c2ccccc2NC(=O)Nc2ccc([N+](=O)[O-])cc2)cc1" : fold induction at 20 min, 10 µM value = 1.47

// "CCCc1ccc(NC(=O)c2ccccc2NC(=O)Nc2cccc([N+](=O)[O-])c2)cc1" : fold induction at 20 min, 10 µM value = 3.55

// "COc1cccc(-n2nnc(-c3ccccc3NC(=O)Nc3ccc([N+](=O)[O-])cc3)n2)c1" : fold induction at 20 min, 10 µM value = 1.94

* * *

Experiment: Inhibition of ABCG2 in human H460/MX20 cells assessed as potentiation of mitoxantrone induced antiproliferative activity by measuring mitoxantrone IC50 at 3 uM preincubated for 2 hrs followed by mitoxantrone addition measured after 72 hrs by MTT assay (reference value: 6.161 +/- 0.172 microM)
I'd appreciate it if you could supply IC50 values for the items below.
The figure you give is taken to be in nM; do not add the unit.

// "COc1ccc(NC(=O)Nc2ccccc2-c2nnn(-c3ccc(OC)cc3)n2)cc1" : IC50 value = 382

// "COc1cccc(-n2nnc(-c3ccccc3NC(=O)Nc3ccc(N)cc3)n2)c1" : IC50 value = 571

// "COc1cccc(-n2nnc(-c3ccccc3NC(=O)c3ccccc3[N+](=O)[O-])n2)c1" : IC50 value = 1320

// "CCCc1ccc(C(=O)Nc2ccccc2-c2nnn(-c3cccc(OC)c3)n2)cc1" : IC50 value = 207

// "COc1cccc(-n2nnc(-c3ccccc3NC(=O)c3cccc([N+](=O)[O-])c3)n2)c1" : IC50 value = 1390

// "CCCc1ccc(NC(=O)c2ccccc2NC(=O)c2cccc([N+](=O)[O-])c2)cc1" : IC50 value = 727

// "COc1cccc(-n2nnc(-c3ccccc3NC(=O)Nc3ccc(NC(C)=O)cc3)n2)c1" : IC50 value = 454

// "CCCc1ccc(NC(=O)c2ccccc2NC(=O)c2ccc(OC)cc2)cc1" : IC50 value = 2012

* * *

System: NCI-H460
Assay: Cytotoxicity against human H460 cells after 72 hrs by MTT assay
Assay type: cell-based
Details: NCI-H460, 72 h
Measured Attribute: IC50

The reported NCI-H460 IC50 of "CCCc1ccc(NC(=O)c2ccccc2NC(=O)Nc2ccc(OC)cc2)cc1" is > 100 µM

The reported NCI-H460 IC50 of "CCCc1ccc(NC(=O)c2ccccc2NC(=O)c2ccc([N+](=O)[O-])cc2)cc1" is > 100 µM

The reported NCI-H460 IC50 of "COc1cccc(-n2nnc(-c3ccccc3NC(=O)c3ccc(NC(C)=O)cc3)n2)c1" is > 100 µM

The reported NCI-H460 IC50 of "CCCc1ccc(C(=O)Nc2ccccc2-c2nnn(-c3cccc(OC)c3)n2)cc1" is 27 µM

The reported NCI-H460 IC50 of "COc1cccc(-n2nnc(-c3ccccc3NC(=O)c3ccc(N)cc3)n2)c1" is > 100 µM

The reported NCI-H460 IC50 of "CCCc1ccc(NC(=O)c2ccccc2NC(=O)Nc2ccccc2[N+](=O)[O-])cc1" is > 100 µM

The reported NCI-H460 IC50 of "COc1cccc(-n2nnc(-c3ccccc3NC(=O)c3ccccc3[N+](=O)[O-])n2)c1" is 38.9 µM

The reported NCI-H460 IC50 of "CCCc1ccc(NC(=O)c2ccccc2NC(=O)c2ccc(OC)cc2)cc1" is > 100 µM

The reported NCI-H460 IC50 of "COc1cccc(-n2nnc(-c3ccccc3NC(=O)Nc3ccc([N+](=O)[O-])cc3)n2)c1" is > 100 µM

The reported NCI-H460 IC50 of "COc1ccc(-n2nnc(-c3ccccc3NC(=O)c3ccc([N+](=O)[O-])cc3)n2)cc1" is 24.7 µM

Measured values drawn from ChEMBL document CHEMBL4043226 for this set.
